We begin with a simple list: items and their reported melting point.
Where a name gives a salt, the structure may show the parent alone.

Reference set (5 entries):
What melting point value was documented for this compound, CCN1CCN(c2nc(-c3ccc(S(=O)(=O)N4CCS(=O)(=O)CC4)cc3)cc3ccccc23)CC1 (as salt: hydrochloride) ?
198 to 200 °C

Now consider CCN1CCN(c2nc(-c3ccc([C@@H]4C[C@@H](O)CCO4)cc3)cc3ccccc23)CC1 (relative stereo) (as salt: hydrochloride) [Example 402, Dihydrochloride] and answer again.
151 to 152.5 °C (dec.)

Now consider CCN1CCN(c2nc(-c3cccc(OCCO)c3)cc3sccc23)CC1 (as salt: hydrochloride) [Example 284, dihydrochloride] and answer again.
126 to 130 °C

Now consider CCN1CCN(c2nc(-c3ccc(OCC(C)(C)O)cc3)cc3ccccc23)CC1 (as salt: hydrochloride) [Example 309, dihydrochloride] and answer again.
129 to 134 °C

Now consider CCN1CCN(c2nc(-c3ccc(S(C)(=O)=O)cc3)cc3ccsc23)CC1 (as salt: hydrochloride) [Example 445, dihydrochloride] and answer again.
222.5 to 225 °C (dec.)

Further cases:
What melting point value was documented for this compound, "CCOc1ccc(-c2cc3ccccc3c(N3CCN(CC)CC3)n2)cc1.Cl.Cl" ?
197 to 198 °C (dec.)

Now consider CCN1CCN(c2nc(-c3ccc(OCCCN)cc3)cc3ccccc23)CC1 (as salt: hydrochloride) and answer again.
173 to 176 °C

Now consider CCN1CCN(c2nc(-c3ccc(OC)c(CCCO)c3)cc3ccsc23)CC1 (as salt: oxalate) and answer again.
98 to 102 °C

Now consider CCN1CCN(c2nc(-c3ccc(CCNS(=O)(=O)CC)cc3)cc3ccccc23)CC1 (as salt: hydrochloride) and answer again.
194 to 197 °C

Now consider CCN1CCN(c2nc(-c3ccc(S(=O)(=O)N(CC)CC)cc3)cc3ccccc23)CC1 (as salt: hydrochloride) [Example 359, dihydrochloride] and answer again.
210 to 212 °C (dec.)

Now consider CCN1CCN(c2nc(C#Cc3ccccc3)cc3ccccc23)CC1 (as salt: hydrochloride) [Example 177, Dihydrochloride] and answer again.
133 to 136 °C

Now consider CCN1CCN(c2nc(-c3ccc(OCC(O)CO)cc3)cc3ccccc23)CC1 (centres unmarked) (as salt: hydrochloride) [Example 337, dihydrochloride] and answer again.
133 to 135 °C (dec.)

Now consider CCN1CCN(c2nc(-c3ccc(S(C)(=O)=O)cc3)cc3ccccc23)CC1 (as salt: hydrochloride) [Example 342, dihydrochloride] and answer again.
216.5 to 218 °C (dec.)

----------
# Target under test: serotonin 1A receptor (Rattus norvegicus, UniProt P19327)
# Construct: To the receptor fraction of the hippocampus were added a test compound and 0.5 nM of [^3H]; 8-hydroxy-dipropylaminotetralin; from tissue; host or cells: rat hippocampus membrane fraction
# Test: Binding test on [3H] 8-hydroxy-dipropylaminotetralin, hippocampus receptor fraction
# Set-up: species or system SD rats
# Condition: rat hippocampus receptor fraction, 0.5 nM [3H] 8-OH-DPAT, room temperature 30 min; read-out: 5HT1
Counter-ions that a name gives are not always drawn.
Result type: pKi
API: returns pKi as number; meaning -log10 of concentration in mol/L.

What pKi value was documented for this molecule, "CCN1CCN(c2nc(-c3ccc(OCCO)c(C#N)c3)cc3ccccc23)CC1" ?
7.87

Now consider CCN1CCN(c2nc(/C=C(\C)c3ccc(N4CCOCC4)cc3)cc3ccccc23)CC1 [Example 206, Oxalate] and answer again.
7.11

Now consider CCN1CCN(c2nc(-c3ccc(COCCO)cc3)cc3ccccc23)CC1 [Example 44, Hydrochloride] and answer again.
7.26

Now consider "CCN1CCN(c2nc(NS(=O)(=O)c3ccc(OC)cc3)cc3ccccc23)CC1" and answer again.
8.01

Now consider CCN1CCN(c2nc(-c3ccc(OCCn4ccnc4)cc3)cc3ccccc23)CC1 [Example 56, Hydrochloride] and answer again.
7.43

Further cases:
What pKi value was documented for this molecule, CCC(=O)NCc1ccc(-c2cc3ccccc3c(N3CCN(CC)CC3)n2)cc1 [Example 85, Hydrochloride] ?
7.73

Now consider CCN1CCN(c2nc(-c3ccc(OC)cc3)cc3cscc23)CC1 [Example 277, oxalate] and answer again.
7.15

Now consider CCN1CCN(c2nc(-c3ccc(OCCO)c(Cl)c3)cc3ccccc23)CC1 [Example 39, hydrochloride] and answer again.
7.59

Now consider CCN1CCN(c2nc(-c3ccc(OCCCO)cc3)cc3ccsc23)CC1 [Example 434, dihydrochloride] and answer again.
7.19

Now consider "CCN1CCN(c2nc(-c3ccnc(OCc4ccccc4)c3)cc3ccccc23)CC1" and answer again.
7.34

----------
Structures can show the parent of a compound that is named as a salt.
// each record: one item and its Ki for serotonin 2 receptor (Rattus norvegicus)
Give a bare numeral; the unit nM is implied.

Reference set (3 entries):
What Ki value was documented for this compound, CCN1CCN(c2nc(-c3ccc(C4=CCC(O)CC4)cc3)cc3ccccc23)CC1 (stereo not shown) [Example 64, Hydrochloride] ?
8.5

Now consider CCN1CCN(c2nc(-c3ccc(CC(C)(C)O)cc3)cc3ccccc23)CC1 [Example 377, Oxalate] and answer again.
16.5

Now consider CCN1CCN(c2nc(-c3ccc(OCC(C)(C)O)cc3)cc3cccnc23)CC1 [Example 250, Dihydrochloride] and answer again.
7.67

Now look at this one.
What Ki value was documented for this compound, "CCN1CCN(c2nc(-c3ccc(N4CCC5(CC4)OCCO5)cc3)cc3ccccc23)CC1" ?
0.1

----------
Structures can show the parent of a compound that is named as a salt.
We begin with a simple list: items and their reported melting point.

What melting point value was documented for this compound, CCN1CCN(c2nc(-c3ccc(OC)cc3)cc3ccoc23)CC1 (as salt: hydrochloride) [Example 467, dihydrochloride] ?
127 to 128 °C

Now consider CCN1CCN(c2nc(-c3ccc(C(O)CCO)cc3)cc3ccccc23)CC1 (centres unmarked) (as salt: hydrochloride) and answer again.
145 to 147 °C

Now consider CCN1CCN(c2nc(-c3ccc(C(F)CCO)cc3)cc3cccnc23)CC1 (centres unmarked) (as salt: hydrochloride) [Example 249, Dihydrochloride] and answer again.
123 to 125 °C

Now consider CCCNC(=O)c1ccc(-c2cc3ccccc3c(N3CCN(CC)CC3)n2)cc1F (as salt: hydrochloride) [Example 384, Dihydrochloride] and answer again.
124 to 125 °C (dec.)

Now consider CCN1CCN(c2nc(-c3ccc(CCC(C)(C)O)cc3)cc3ccsc23)CC1 (as salt: hydrochloride) [Example 439, dihydrochloride] and answer again.
122 to 133.5 °C

Now consider CCN1CCN(c2nc(-c3ccc(OCCO)c(OCCO)c3)cc3ccccc23)CC1 (as salt: hydrochloride) and answer again.
130 to 132 °C

Now consider CCN1CCN(c2nc(-c3cc(OCCO)cc(OCCO)c3)cc3ccccc23)CC1 (as salt: hydrochloride) and answer again.
232 to 234 °C

Now consider CCN1CCN(c2nc(-c3ccc(CCCO)c(Cl)c3)cc3ccsc23)CC1 (as salt: oxalate) and answer again.
114 to 116 °C

Now consider CCN1CCN(c2nc(-c3ccc(OC)cc3)nc3ccccc23)CC1 (as salt: hydrochloride) [Example 427, Dihydrochloride] and answer again.
224.5 to 226 °C (dec.)

Now consider CCN1CCN(c2nc(/C=C/c3cccc(OCCO)c3)cc3ccsc23)CC1 (as salt: hydrochloride) and answer again.
98 to 99 °C

Further cases:
What melting point value was documented for this compound, CCN1CCN(c2nc(-c3ccc(N4CCC(CO)CC4)nc3)cc3ccccc23)CC1 (as salt: hydrochloride) [Example 154, trihydrochloride] ?
188 °C

Now consider CCN1CCN(c2nc(-c3ccc(OCCO)cc3)cc3ccc(F)cc23)CC1 (as salt: hydrochloride) and answer again.
225 to 229 °C

Now consider CCN1CCN(c2nc(C3CCCc4c(OC)cccc43)cc3ccccc23)CC1 (centres unmarked) (as salt: oxalate) and answer again.
133 to 136 °C

Now consider CCN1CCN(c2nc(-c3ccc(C(O)CC(C)(C)O)cc3)cc3ccccc23)CC1 (centres unmarked) (as salt: hydrochloride) and answer again.
190 to 192 °C

Now consider CCN1CCN(c2nc(-c3ccc(C(O)CO)cc3)cc3ccccc23)CC1 (centres unmarked) (as salt: hydrochloride) [Example 387, Dihydrochloride] and answer again.
132 to 133 °C

----------
We begin with a simple list: items and their reported Ki.
# Target under test: serotonin 1A receptor (Rattus norvegicus)
# Construct: To the receptor fraction of the hippocampus were added a test compound and 0.5 nM of [^3H]; 8-hydroxy-dipropylaminotetralin; from tissue; host or cells: rat hippocampus membrane fraction
# Sequence (P19327 1-422): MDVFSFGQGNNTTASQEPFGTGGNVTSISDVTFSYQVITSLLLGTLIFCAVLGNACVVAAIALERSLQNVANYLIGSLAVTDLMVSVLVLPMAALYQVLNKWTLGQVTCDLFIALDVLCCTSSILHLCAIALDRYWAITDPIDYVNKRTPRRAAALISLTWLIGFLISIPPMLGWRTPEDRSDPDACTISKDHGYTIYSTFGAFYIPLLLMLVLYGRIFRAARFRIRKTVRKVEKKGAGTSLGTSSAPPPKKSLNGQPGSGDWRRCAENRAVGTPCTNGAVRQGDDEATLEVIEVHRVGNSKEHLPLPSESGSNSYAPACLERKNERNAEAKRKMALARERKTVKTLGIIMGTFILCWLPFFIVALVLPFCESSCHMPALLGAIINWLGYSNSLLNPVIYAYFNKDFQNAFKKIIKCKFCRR
# Test: Binding test on [3H] 8-hydroxy-dipropylaminotetralin, hippocampus receptor fraction
# Parameters: species or system SD rats
# Condition: rat hippocampus receptor fraction, 0.5 nM [3H] 8-OH-DPAT, room temperature 30 min; read-out: 5HT1
Counter-ions that a name gives are not always drawn.
Give a bare numeral; the unit nM is implied.

What Ki value was documented for this compound, CCN1CCN(c2nc(-c3ccc4c(c3)CC(CO)C4)cc3ccccc23)CC1 (stereo not shown) [Example 393, Dihydrochloride] ?
13.1

Now consider CCN1CCN(c2nc(C(C)=Cc3ccccc3)cc3ccccc23)CC1 [Example 192] and answer again.
66.7

Now consider CCN1CCN(c2nc(-c3ccc(OCCOC)c(F)c3)cc3ccccc23)CC1 [Example 367, dihydrochloride] and answer again.
55.2

Now look at this one.
What Ki value was documented for this compound, CCN1CCN(c2nc(CC(O)c3ccccc3)cc3ccccc23)CC1 (stereo not shown) [Example 420] ?
117
